# Experimental target: T1, Ep-CAM (UniProt P16422 24-265, limits assumed)
# T1 construct: Amine coupled to a CM5 chip in the Biacore assays
# T1 sequence (looked up): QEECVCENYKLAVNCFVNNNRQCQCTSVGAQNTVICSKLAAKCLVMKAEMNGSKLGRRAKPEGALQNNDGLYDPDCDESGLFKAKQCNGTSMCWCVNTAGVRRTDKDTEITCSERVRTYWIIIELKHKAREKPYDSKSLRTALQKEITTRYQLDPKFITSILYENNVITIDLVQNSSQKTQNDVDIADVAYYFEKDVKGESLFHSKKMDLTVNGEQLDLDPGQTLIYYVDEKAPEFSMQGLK
# Experiment notes: Biacore, Fab periplasmic extract
Endpoint label: fold difference in affinity vs parental ING-1 (fold)
# value in fold; strip the unit string

>>> measured_result("ING-1 light chain Y54E (Fab, V domains shown, Fab, periplasmic extract) VH: QIQLVQSGPELKKPGETVKISCKASGYTFTKYGMNWVKQAPGKGLKWMGWINTYTEEPTYGDDFKGRFAFSLETSASTANLQINNLKSEDTATYFCARFGSAVDYWGQGTSVTVSS VL: DIVMTQAAFSNPVTLGTSGSISCRSSKSLLHSNGITYLYWYLQKPGQSPQLLIEQMSNLASGVPDRFSSSGSGTDFTLRISRVEAEDVGVYYCAQNLELPRTFGGGTKLEMKR")
0.05
>>> measured_result("ING-1 light chain L99Y (Fab, V domains shown, Fab, periplasmic extract) VH: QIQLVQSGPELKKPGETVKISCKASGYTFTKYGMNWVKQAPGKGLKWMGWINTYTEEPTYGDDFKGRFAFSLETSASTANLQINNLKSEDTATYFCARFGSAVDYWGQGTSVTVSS VL: DIVMTQAAFSNPVTLGTSGSISCRSSKSLLHSNGITYLYWYLQKPGQSPQLLIYQMSNLASGVPDRFSSSGSGTDFTLRISRVEAEDVGVYYCAQNLEYPRTFGGGTKLEMKR")
1

// next item, fold difference in affinity vs parental ING-1 requested
Respond only with fold difference in affinity vs parental ING-1 recorded for ING-1 light chain P100S (Fab, V domains shown, Fab, periplasmic extract) VH: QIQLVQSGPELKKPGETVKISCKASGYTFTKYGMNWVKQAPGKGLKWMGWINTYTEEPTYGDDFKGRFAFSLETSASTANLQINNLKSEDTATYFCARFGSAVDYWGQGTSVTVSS VL: DIVMTQAAFSNPVTLGTSGSISCRSSKSLLHSNGITYLYWYLQKPGQSPQLLIYQMSNLASGVPDRFSSSGSGTDFTLRISRVEAEDVGVYYCAQNLELSRTFGGGTKLEMKR
0.06
